Minimum inhibitory concentration (MIC) values, listed per item
# Test system: Escherichia coli ATCC 25922
# Assay type: cell-based
# test.parameters: ATCC 25922
Starred links: 1 amine or outer side, 2 acyl side, 3 side chain; linkers in the order of their positions; H or OH if unused. Positions of bridges follow the written chain, without caps; N, C: chain ends. Non-standard residues stand in square brackets, D forms with d. Residues, ends and D or L forms follow the SMILES beside them. ξ: configuration not given here. *: point of attachment. X1 = C[C@@H](N=[N+]=[N-])[C@H](N[*:1])C(=O)[*:2]; Octanoyl(7-Me) = CC(C)CCCCCC(=O)*; Hexanoyl(4ξ-Me) = CCC(C)CCC(=O)*; Myristoyl = CCCCCCCCCCCCCC(=O)*; dOrn = NCCC[C@@H](N)C(=O)O; Octanoyl = CCCCCCCC(=O)*; Orn = NCCC[C@H](N)C(=O)O
Write the answer as a number in µg/mL, unit excluded.

Here are 4 molecules together with their reported answers.
{"molecule": "CCC(C)CCC(=O)N[C@H](CO)C(=O)N[C@H](Cc1ccc(O)cc1)C(=O)N[C@H](Cc1c[nH]c2ccccc12)C(=O)N[C@H](CCCN)C(=O)N[C@@H](CCCN)C(=O)NCC(=O)N[C@H](CCCN)C(=O)N[C@@H](Cc1c[nH]c2ccccc12)C(=O)N[C@@H]1C(=O)N[C@@H]([C@@H](C)CC)C(=O)NCC(=O)N[C@@H](CO)C(=O)N[C@@H](C)C(=O)O[C@@H]1C (stereo partly drawn) [Compound R5] ({Hexanoyl(4ξ-Me)}-[dS][dY][dW][dOrn][Orn]G[dOrn]WTIGSA; ester 9-C; N-terminus assumed)", "Minimum inhibitory concentration (MIC) (µg/mL)": 2}
{"molecule": "CCCCCCCC(=O)N[C@H](CO)C(=O)N[C@H](Cc1ccc(O)cc1)C(=O)N[C@H](Cc1c[nH]c2ccccc12)C(=O)N[C@H](CCCN)C(=O)N[C@@H](CCCN)C(=O)NCC(=O)N[C@H](CCCN)C(=O)N[C@@H](Cc1c[nH]c2ccccc12)C(=O)N[C@@H](CO)C(=O)N[C@H](C(=O)N[C@@H](CC(N)=O)C(=O)NCC(N)=O)[C@@H](C)CC [ΔG13-Ser9-C8] (Octanoyl-[dS][dY][dW][dOrn][Orn]G[dOrn]WSING-NH2)", "Minimum inhibitory concentration (MIC) (µg/mL)": 4}
{"molecule": "CCC(C)CCC(=O)N[C@H](CO)C(=O)N[C@H](Cc1ccc(O)cc1)C(=O)N[C@H](Cc1c[nH]c2ccccc12)C(=O)N[C@H](CCCN)C(=O)N[C@@H](CCCN)C(=O)NCC(=O)N[C@H](CCCN)C(=O)N[C@@H](Cc1c[nH]c2ccccc12)C(=O)N[C@@H]1C(=O)N[C@@H]([C@@H](C)CC)C(=O)NCC(=O)N[C@@H](CO)C(=O)NCC(=O)O[C@@H]1C (stereo partly drawn) [Compound R1] ({Hexanoyl(4ξ-Me)}-[dS][dY][dW][dOrn][Orn]G[dOrn]WTIGSG; ester 9-C; N-terminus assumed)", "Minimum inhibitory concentration (MIC) (µg/mL)": 2}
{"molecule": "CC[C@H](C)[C@H](NC(=O)[C@@H](NC(=O)[C@H](Cc1c[nH]c2ccccc12)NC(=O)[C@@H](CCCN)NC(=O)CNC(=O)[C@H](CCCN)NC(=O)[C@@H](CCCN)NC(=O)[C@@H](Cc1c[nH]c2ccccc12)NC(=O)[C@@H](Cc1ccc(O)cc1)NC(=O)[C@@H](CO)NC(=O)CCCCCC(C)C)[C@@H](C)O)C(=O)N[C@@H](CC(N)=O)C(N)=O [ΔG12-G13, FA-sywoOGoWTIN-CONH2] ({Octanoyl(7-Me)}-[dS][dY][dW][dOrn][Orn]G[dOrn]WTIN-NH2)", "Minimum inhibitory concentration (MIC) (µg/mL)": 4}

Which Minimum inhibitory concentration (MIC) value is on record for CCCCCCCCCCCCCC(=O)N[C@H](CO)C(=O)N[C@H](Cc1ccc(O)cc1)C(=O)N[C@H](Cc1c[nH]c2ccccc12)C(=O)N[C@H](CCCN)C(=O)N[C@@H](CCCN)C(=O)NCC(=O)N[C@H](CCCN)C(=O)N[C@@H](Cc1c[nH]c2ccccc12)C(=O)N[C@@H]1C(=O)N[C@@H]([C@@H](C)CC)C(=O)N[C@@H](CC(N)=O)C(=O)NCC(=O)NCC(=O)O[C@@H]1C [Compound C14] (Myristoyl-[dS][dY][dW][dOrn][Orn]G[dOrn]WTINGG; ester 9-C) ? 8

// query: CCC(C)CCC(=O)N[C@H](CO)C(=O)N[C@H](Cc1ccc(O)cc1)C(=O)N[C@H](Cc1c[nH]c2ccccc12)C(=O)N[C@H](CCCN)C(=O)N[C@@H](CCCN)C(=O)NCC(=O)N[C@H](CCCN)C(=O)N[C@@H](Cc1c[nH]c2ccccc12)C(=O)N[C@@H]1C(=O)N[C@@H]([C@@H](C)CC)C(=O)NCC(=O)N[C@H](CO)C(=O)NCC(=O)O[C@@H]1C (stereo partly drawn) [Compound R2] ({Hexanoyl(4ξ-Me)}-[dS][dY][dW][dOrn][Orn]G[dOrn]WTIG[dS]G; ester 9-C; N-terminus assumed) 2

Thanks! And CC[C@H](C)[C@H](NC(=O)[C@@H](NC(=O)[C@H](Cc1c[nH]c2ccccc12)NC(=O)[C@@H](CCCN)NC(=O)CNC(=O)[C@H](CCCN)NC(=O)[C@@H](CCCN)NC(=O)[C@@H](Cc1c[nH]c2ccccc12)NC(=O)[C@@H](Cc1ccc(O)cc1)NC(=O)[C@@H](CO)NC(=O)CCCCCC(C)C)[C@@H](C)N=[N+]=[N-])C(=O)N[C@@H](CC(N)=O)C(=O)NCC(=O)NCC(N)=O [MeDap(N3)9-CONH2] ({Octanoyl(7-Me)}-[dS][dY][dW][dOrn][Orn]G[dOrn]W[X1]INGG-NH2) ? 2

---

# System: Escherichia coli ATCC 25922
# Assay type: cell-based
# test.parameters: ATCC 25922
Positions of bridges follow the written chain, without caps; N, C: chain ends. Non-standard residues stand in square brackets, D forms with d. Residues, ends and D or L forms follow the SMILES beside them. ξ: configuration not given here. *: point of attachment. Octanoyl(7-Me) = CC(C)CCCCCC(=O)*; Hexanoyl(4ξ-Me) = CCC(C)CCC(=O)*; dOrn = NCCC[C@@H](N)C(=O)O; Orn = NCCC[C@H](N)C(=O)O
Listing: Minimum inhibitory concentration (MIC) of selected compounds

Example compounds with recorded Minimum inhibitory concentration (MIC):
{"compound": "CCC(C)CCC(=O)N[C@H](CO)C(=O)N[C@H](Cc1ccc(O)cc1)C(=O)N[C@H](Cc1c[nH]c2ccccc12)C(=O)N[C@H](CCCN)C(=O)N[C@@H](CCCN)C(=O)NCC(=O)N[C@H](CCCN)C(=O)N[C@@H](Cc1c[nH]c2ccccc12)C(=O)N[C@@H]1C(=O)N[C@@H]([C@@H](C)CC)C(=O)NCC(=O)N[C@@H](CO)C(=O)N[C@H](C)C(=O)O[C@@H]1C (stereo partly drawn) [Compound R7] ({Hexanoyl(4ξ-Me)}-[dS][dY][dW][dOrn][Orn]G[dOrn]WTIGS[dA]; ester 9-C; N-terminus assumed)", "value": "1 µg/mL"}
{"compound": "C[C@@H](N=[N+]=[N-])[C@H](N)C(=O)O", "value": "2 to 4 µg/mL"}

Form field: reported Minimum inhibitory concentration (MIC) of CC[C@H](C)[C@H](NC(=O)[C@@H](NC(=O)[C@H](Cc1c[nH]c2ccccc12)NC(=O)[C@@H](CCCN)NC(=O)CNC(=O)[C@H](CCCN)NC(=O)[C@@H](CCCN)NC(=O)[C@@H](Cc1c[nH]c2ccccc12)NC(=O)[C@@H](C)NC(=O)[C@@H](CO)NC(=O)CCCCCC(C)C)[C@@H](C)O)C(=O)N[C@@H](CC(N)=O)C(=O)NCC(=O)NCC(N)=O [Ala2 (D-Tyr→D-Ala), FA-sawoOGoWTINGG-CONH2] ({Octanoyl(7-Me)}-[dS][dA][dW][dOrn][Orn]G[dOrn]WTINGG-NH2) 8 to 16 µg/mL

---

# Tested on: Escherichia coli ATCC 25922
# Assay type: cell-based
# test.parameters: ATCC 25922
Positions of bridges follow the written chain, without caps; N, C: chain ends. Non-standard residues stand in square brackets, D forms with d. Residues, ends and D or L forms follow the SMILES beside them. *: point of attachment. Octanoyl(7-Me) = CC(C)CCCCCC(=O)*; dOrn = NCCC[C@@H](N)C(=O)O; Orn = NCCC[C@H](N)C(=O)O; Dap = NC[C@H](N)C(=O)O; Alloc = C=CCOC(=O)*
reported.endpoint: Minimum inhibitory concentration (MIC) (µg/mL)
Write it as a number; the unit µg/mL goes unstated.

{"compound": "CC[C@H](C)[C@H](NC(=O)[C@@H](NC(=O)[C@H](Cc1c[nH]c2ccccc12)NC(=O)[C@@H](CCCN)NC(=O)CNC(=O)[C@H](CCCN)NC(=O)[C@@H](C)NC(=O)[C@@H](Cc1c[nH]c2ccccc12)NC(=O)[C@@H](Cc1ccc(O)cc1)NC(=O)[C@@H](CO)NC(=O)CCCCCC(C)C)[C@@H](C)O)C(=O)N[C@@H](CC(N)=O)C(=O)NCC(=O)NCC(N)=O [Ala4 (D-Orn→D-Ala), FA-sywaOGoWTINGG-CONH2] ({Octanoyl(7-Me)}-[dS][dY][dW][dA][Orn]G[dOrn]WTINGG-NH2)", "reported.endpoint": "Minimum inhibitory concentration (MIC)", "value": 32}
{"compound": "CC[C@H](C)[C@@H]1NC(=O)[C@@H](NC(=O)[C@H](Cc2c[nH]c3ccccc23)NC(=O)[C@@H](CCCN)NC(=O)CNC(=O)[C@H](CCCN)NC(=O)[C@@H](CCCN)NC(=O)[C@@H](Cc2c[nH]c3ccccc23)NC(=O)[C@@H](Cc2ccc(O)cc2)NC(=O)[C@@H](CO)NC(=O)CCCCCC(C)C)[C@@H](C)OC(=O)[C@@H](C)NC(=O)[C@H](CO)NC(=O)CNC1=O [Compound R11] ({Octanoyl(7-Me)}-[dS][dY][dW][dOrn][Orn]G[dOrn]WTIGS[dA]; ester 9-C; N-terminus assumed)", "reported.endpoint": "Minimum inhibitory concentration (MIC)", "value": 1}

Would you kindly look at the next entry?
Find the recorded Minimum inhibitory concentration (MIC) belonging to C=CCOC(=O)NC[C@H](NC(=O)[C@H](Cc1c[nH]c2ccccc12)NC(=O)[C@@H](CCCN)NC(=O)CNC(=O)[C@H](CCCN)NC(=O)[C@@H](CCCN)NC(=O)[C@@H](Cc1c[nH]c2ccccc12)NC(=O)[C@@H](Cc1ccc(O)cc1)NC(=O)[C@@H](CO)NC(=O)CCCCCC(C)C)C(=O)N[C@H](C(=O)N[C@@H](CC(N)=O)C(=O)NCC(N)=O)[C@@H](C)CC [ΔG13-Dap(Alloc)9-isoC9] ({Octanoyl(7-Me)}-[dS][dY][dW][dOrn][Orn]G[dOrn]W[Dap](Alloc)ING-NH2) and report it. 2
